- Tested on: Staphylococcus aureus
- assay-overview: Minimum inhibitory concentration against methicillin-resistant Staphylococcus aureus (MRSA) A27223
- Format: functional

{"columns": ["compound-smiles", "tgt", "readout-units", "MIC"],
 "data": [
  ["Cl.NCCC[n+]1ccc(SCC2=C(C(=O)O)N3C(=O)[C@@H](NC(=O)CSc4cc(Cl)ccc4Cl)[C@H]3SC2)cc1.[Cl-]", "Staphylococcus aureus", "µg/mL", 0.125],
  ["Cc1cc(SCC2=C(C(=O)[O-])N3C(=O)[C@@H](NC(=O)CSc4cc(Cl)ccc4Cl)[C@H]3SC2)cc(CCc2ccccc2)[n+]1CCS(=O)(=O)O", "Staphylococcus aureus", "µg/mL", 2],
  ["NCCC[n+]1ccc(SCC2=C(C(=O)O)N3C(=O)[C@@H](NC(=O)CSc4cc(Cl)nc(Cl)c4)[C@H]3SC2)cc1CCCC(=O)O.O=C(O)C(F)(F)F.O=C([O-])C(F)(F)F", "Staphylococcus aureus", "µg/mL", 2]
]}
